B1: LINE1-full (parent)
chain: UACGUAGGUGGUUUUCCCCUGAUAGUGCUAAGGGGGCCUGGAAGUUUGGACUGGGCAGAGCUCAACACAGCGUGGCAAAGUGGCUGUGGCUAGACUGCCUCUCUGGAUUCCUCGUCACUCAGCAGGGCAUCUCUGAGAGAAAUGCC

Variants of: B1
Protocol: self-cleavage, relative activity (ratio to wild type); higher = more cleavage; in vitro, sequencing; the parent is a self-cleaving ribozyme
Test Readout: self-cleavage

- Macromolecule Sequence: "UACGUAGGUGGUUUUCCCCUGAUAGUGCUAAGGGGGCCUGGAAGUUUGGACUGGGCAGAGCUCAACACAGCUUGGCAAAGUGGCUGUGGCUAGGCUGCCUCUCUGGAUUCCUCGUCACUCAGCAGGGCAUCUCUGAGAGAAAUGCC [G72U A94G]"
  Test Value: 0.46
- Macromolecule Sequence: "UACGUAGGUGGUUUUCCCCUGAUAGUGCUAAGGGGGCCUGGAAGUUUGGACUGGGCAGAGCUCAACACAGCGCGGCAAAGUGGCUGUGGCUAGACUGCCUCUCUGGUUUCCUCGUCACUCAGCAGGGCAUCUCUGAGAGAAAUGCC [U73C A107U]"
  Test Value: 2.22
- Macromolecule Sequence: "UACGUAGGUGGUUUUCCCCUGAUAGUGCUAAGGGGGCCUGGAAGUUUGGACUGGGCAGAGCUCAACACAGCGUGGCAAAGUGGCUGUGGCUAGACUGCCUCUCUGGACCCCUCGUCACUCAGCAGGGCAUCUCUGAGAGAAAUGCC [U108C U109C]"
  Test Value: 1.51
- Macromolecule Sequence: "UACGUAGGUGGUUUUCCCCUGAUAGUGCUAAGGGGGCCUGGAAGUUUGGACUGGGCAGAGCUCAACACAGCGUGGCUAAGUGGCUGUGGCUAGACUGCCUCUCUGGAUUCCUAGUCACUCAGCAGGGCAUCUCUGAGAGAAAUGCC [A77U C113A]"
  Test Value: 0.92
- Macromolecule Sequence: "UACGUAGGUGGUUUUCCCCUGAUAGUGCUAAGGGGGCCUGGAAGUUUAGACUGGGCAGAGCUUAACACAGCGUGGCAAAGUGGCUGUGGCUAGACUGCCUCUCUGGAUUCCUCGUCACUCAGCAGGGCAUCUCUGAGAGAAAUGCC [G48A C63U]"
  Test Value: 0.36
- Macromolecule Sequence: "UACGUAGGUGGUUUUCCCCUGACAGUGCUAAGGGGGCCUGGAAGUUUGGACUAGGCAGAGCUCAACACAGCGUGGCAAAGUGGCUGUGGCUAGACUGCCUCUCUGGAUUCCUCGUCACUCAGCAGGGCAUCUCUGAGAGAAAUGCC [U23C G53A]"
  Test Value: 0.87
- Macromolecule Sequence: "UACGUAGGUGGUUUUCCCCUGAUGGUGCUAAGGGGGCCUGGAAGUUUGGACUGGGCAGAGCUCAACACAGCGUGGCAAAGUGGCUGUGGCUAGACUGCCUCUCUGGAUUCCCCGUCACUCAGCAGGGCAUCUCUGAGAGAAAUGCC [A24G U112C]"
  Test Value: 1.41
- Macromolecule Sequence: "UACGUAGGCGGUUUUCCCCUGAUAGUGCUAAGGGGGCCUGGAAGUUUGGACUGGGCAGAGCUCAACACAGCGUGGCAAAGUGGCUGUGGCUAGACUGCCUCUUUGGAUUCCUCGUCACUCAGCAGGGCAUCUCUGAGAGAAAUGCC [U9C C103U]"
  Test Value: 1.4
- Macromolecule Sequence: "UACGUAGGUGGUUUUCCCCUGAUUGUGCUAAGGGGGGCUGGAAGUUUGGACUGGGCAGAGCUCAACACAGCGUGGCAAAGUGGCUGUGGCUAGACUGCCUCUCUGGAUUCCUCGUCACUCAGCAGGGCAUCUCUGAGAGAAAUGCC [A24U C37G]"
  Test Value: 0.82
- Macromolecule Sequence: "AACGUAGGUGGUUUUCCCCUGAUAGUGCUAAGGGGGCCUGGAAGUUUGGACUGGGCAGAGCUCAACACAGCGUGGCAAAGUGGCUGUGGCUAGACUGCCUCUCUGGAUUCCUCGUCACUCGGCAGGGCAUCUCUGAGAGAAAUGCC [U1A A121G]"
  Test Value: 1.73
- Macromolecule Sequence: "UACGUAGGUGGUUUUCCCCUGAUAGUGCUAAGGGGGCCUGGAAGUCUCGACUGGGCAGAGCUCAACACAGCGUGGCAAAGUGGCUGUGGCUAGACUGCCUCUCUGGAUUCCUCGUCACUCAGCAGGGCAUCUCUGAGAGAAAUGCC [U46C G48C]"
  Test Value: 1.2

Numbers sourced from the RNAGym collection of RNA variant scans (doi:10.7554/elife.90254).
